Entries and their measured melting point follow.
endpoint: melting point

> print(dat)
                                   compound       endpoint  value.observed
1  CCCCC(C)OC(=O)Nc1ccc(-c2ncn(-c3ccc(OC(F)(F)F)cc3)n2)cc1 (centres undefined)  melting point   111 to 113 °C
2  Cc1ccc(N2C(=O)C(O)=C(C(=O)c3ccc(-c4ccccn4)cc3)C2c2ccc(OC(F)(F)F)cc2)nn1 (centres undefined)  melting point   247 to 249 °C
3  Nc1sc2c(c1C(=O)c1ccc(Cl)cc1)CCN(C(=O)Nc1ccccc1)C2  melting point   216 to 217 °C
4  CC(C)(C)c1cc(CCc2cc(C=O)cc(CCc3cc(C(C)(C)C)cc(C(C)(C)C)c3)c2)cc(C(C)(C)C)c1  melting point     74 to 75 °C

###

endpoint: melting point

> print(dat)
                                    compound  value.observed
 1             Oc1cc2cc(C3CCCC3)sc2c(Cl)c1Cl   62 to 63.5 °C
 2  CCOC(=O)c1sc(Oc2ccc(Cl)cc2Cl)nc1-c1cccc(C(F)(F)F)c1     72 to 73 °C
 3  O=C(OCc1ccccc1)N1CCC(O)(C(=O)O)C1 (stereo not drawn)   142 to 144 °C
 4           CC(C)Oc1ccc2c(c1O)OC(C)(C)CC2=O   114 to 116 °C
 5  COc1ccc(-c2csc(N(C(C)=O)c3cc4ccccc4cn3)n2)cc1OC   164 to 165 °C
 6  COC(=O)[C@@](C)(CCC1=C(C)C(=O)C(C)=C(C)C1=O)OS(C)(=O)=O   112 to 114 °C
 7  CCc1c(-c2ccc(O)cc2)c2cc(C(C)=O)c3cc(O)cc1n32   274 to 275 °C
 8                          CSc1nc(C)cc(O)n1          149 °C
 9  CC(CCCS(C)(=O)=O)C(c1cc(F)ccc1F)S(=O)(=O)c1ccc(Cl)cc1 (stereo not drawn)   115 to 117 °C
10           COc1ccc(Sc2oc3ccc(Cl)cc3c2C)nn1   131 to 134 °C
11  CCc1cc2c(s1)-c1ccccc1C(CC)N2S(=O)(=O)c1ccc(O)cc1 (stereo not drawn)   119 to 122 °C
12  CCOC(=O)C1=C(CC)NC(CC)=C(C(=O)OCC)C1c1ccccc1/C=C/C(=O)OC(C)(C)C   154 to 155 °C
13  O=C(O)C(O)C(O)C(=O)NCc1ccc2c(c1)-c1n[nH]c(=O)c3cccc(c13)O2 (stereo not drawn)   181 to 185 °C
14  NC(=O)[C@H](CO)Nc1nc(SCc2cccc(F)c2F)nc2nc(N)sc12   145 to 151 °C
15  COc1ccc(CC2SC(=O)NC2=O)c2c1N(Cc1ccc([N+](=O)[O-])cc1)C(=O)CC2 (stereo not drawn)   246 to 247 °C
16  CCCCCCCCCCCCCCCCNc1ccc(C(=O)OCC2CO2)cc1 (stereo not drawn)     86 to 89 °C
17  COc1cc(Oc2ccc(C(=O)N(C3CCCCC3)C3CCCC3)cc2C)cc(OC)c1OC   181 to 182 °C
18  Cc1cccc(-c2[nH]c(C(C)C)nc2-c2ccc(F)c(-c3c[nH]nn3)c2)n1   233 to 235 °C
19  CCOC(=O)[C@H](CCc1ccccc1)N[C@@H](C)C(=O)N1N=C(C(C)(C)C)S[C@H]1C(=O)O   165 to 168 °C
20  COc1cc(Nc2c(C#N)cnc3cc(I)c(OC)cc23)c(Cl)cc1Cl   253 to 254 °C
21  CCCCn1c(C)c(C2(c3c(C)n(CCCC)c4ccccc34)NNC(=O)c3ccccc32)c2ccccc21          206 °C
22  C[C@@H]1Cc2ccsc2[C@H](C)N1CCNC(=O)c1ccccn1 (relative stereo)   116 to 120 °C
23  Cc1cc(=O)n(C)c2ccc(C3=NNC(=O)CC3CO)cc12 (stereo not drawn)   222 to 223 °C
24  COc1cc2oc(=O)c(CCN3CCN(c4ccccc4OC)CC3)c(C)c2cc1OC(C)C   123 to 125 °C
25  O=C(Cc1ccccc1)Nc1ccc(CN2C(=O)[C@H]3CCC[C@H]3N(C(=O)CN3C(=O)c4ccccc4C3=O)c3ccccc32)cc1 (relative stereo)   143 to 145 °C
26         O=C(c1ccncc1)c1cnc2cc(Cl)ccc2c1Cl          132 °C
27               CN1Cc2c(I)ncn2-c2ccccc2C1=O   174 to 176 °C
28  Cc1nc(-c2ccc(N3CC(C(=O)O)OC3=O)cc2)no1 (stereo not drawn)   215 to 218 °C
29  C#Cc1cccc(Nc2ncnc3cc(OCCOC)c(OCCOC(C)=O)cc23)c1     84 to 87 °C
30  O=S1(=O)c2cccc3cccc(c23)N1CCN1CC=C(Cc2c[nH]c3ccc(F)cc23)CC1          128 °C
31  CC(C)N(O)C(=O)Nc1cccc(S(C)=O)c1 (stereo not drawn)   135 to 136 °C
32                   Cc1cc(-c2oncc2CO)ccc1Cl     92 to 93 °C
33  O=C(c1ccc(-c2cccc3ccccc23)nc1)N1Cc2cccn2Cc2ccccc21   155 to 158 °C
34  CCS(=O)(=O)c1cc2c(cc1OC)CCn1c3c(c(-c4cccs4)c1-2)CCCCN(C(C)(C)C)C3=O   223 to 224 °C
35  N#CCCNC(=O)c1cccc(-c2cccn3nc(Nc4cccc(C(F)(F)F)c4)nc23)c1   214 to 215 °C
36      COc1ccc(-n2cnc3c(OC)nc4ccccc4c32)cc1   180 to 182 °C
37  CC(C)c1cccc(C(C)C)c1N1C(=O)c2cccc3c(Br)ccc(c23)C1=O          277 °C
38  c1ccc(CN2CCC(Oc3cnccn3)(c3ccccc3)CC2)cc1   107 to 108 °C

Source listed as a melting point compilation (Tetko et al.; mined from patent text by program, amines drawn as free bases though some values may be those of a salt).
